Biological target: muscarinic M1 receptor (Homo sapiens, UniProt P11229)
Construct: expressed in transfected cells
Sequence (P11229 whole entry): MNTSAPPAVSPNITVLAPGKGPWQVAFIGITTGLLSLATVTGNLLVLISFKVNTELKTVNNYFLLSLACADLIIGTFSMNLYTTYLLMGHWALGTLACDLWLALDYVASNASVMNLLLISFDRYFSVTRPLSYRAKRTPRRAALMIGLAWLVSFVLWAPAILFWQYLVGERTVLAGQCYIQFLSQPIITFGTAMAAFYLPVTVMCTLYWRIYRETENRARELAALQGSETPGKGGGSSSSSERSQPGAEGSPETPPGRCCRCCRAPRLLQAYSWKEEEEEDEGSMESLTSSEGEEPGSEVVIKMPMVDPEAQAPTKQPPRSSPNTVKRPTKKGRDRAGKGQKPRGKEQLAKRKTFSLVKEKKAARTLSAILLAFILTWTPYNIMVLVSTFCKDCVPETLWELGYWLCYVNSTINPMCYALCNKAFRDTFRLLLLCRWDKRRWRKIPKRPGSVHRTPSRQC
Experiment: R-SAT functional screen, M1
Assay type: cell-based
Exercise: state measured EC50 for each of the compounds provided.
Answers are plain numbers, in nM.

Fc1ccc2c(c1)N=C(N1CCCNCC1)c1ccccc1N2 | 200

// moving on: another record for EC50
// EC50 value for "Clc1ccc2c(c1)N=C(N1CCCNCC1)c1ccccc1N2" : 100

###

Target: UniProt:P11229
Assay: Receptor profile, M1 agonist activity
Conditions: read-out: M1 intrinsic activity %
Hi! Could you tag entries with Emax below 60% as Y, and those at or above as N? Much appreciated.

Reference set, count: 6
Brc1ccc2c(c1)N=C(N1CCNCC1)c1ccccc1O2 | Y
Clc1ccc2c(c1)N=C(N1CCNCC1)c1ccccc1C2 | N
Fc1ccc2c(c1)N=C(N1CCNCC1)c1ccccc1O2 | Y
Cc1cccc2c1Oc1ccc(F)cc1N=C2N1CCNCC1 | Y
Cc1cccc2c1Oc1ccc(C(F)(F)F)cc1N=C2N1CCNCC1 | Y
Cc1cccc2c1Oc1ccc(Cl)cc1N=C2N1CCNCC1 | N

Continue with the compound presented below.
Identify whether the compound "CN1c2ccc(Cl)cc2N=C(N2CCNCC2)c2ccccc21" records Emax below 60%. N
